- Tested on: anti-desmoglein-3 scFv antibody binding to human DSG3
- test: blockers of pathogenic pemphigus antibody–desmoglein-3 binding – biochemical, validation compound set, bead-based, flow cytometry, pilot screen (AID 588368);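 further: signal is the median channel fluorescence of bead-bound GFP antibody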
- run_parameters: Protein G beads, DSG3-Fc, scFv-GFP binding, at 10 µM, active compounds read low
measured_endpoint: binding (% of control) (%)
Note: unit % is implicit; provide only the numeric part.

• COCCOC(=O)C1=C(C)NC(C)=C(C(=O)OC(C)C)C1c1cccc([N+](=O)[O-])c1 (stereo not given) = 97.4

Lookup: Any idea what binding (% of control) came out for `CC(=O)OCC(=O)[C@H]1CC[C@H]2[C@@H]3CCC4=CC(=O)CC[C@]4(C)[C@H]3CC[C@]12C` on anti-desmoglein-3 scFv antibody binding to human DSG3?
Found: 105

Lookup: Any idea what binding (% of control) came out for COc1ccccc1C(CCN(Cc1ccccc1)C(C)=O)c1ccco1 (stereo not given) on anti-desmoglein-3 scFv antibody binding to human DSG3?
Found: 102

Lookup: Any idea what binding (% of control) came out for `COc1ccc2cc(C(=O)OC(C)C)sc(=O)c2c1OC` on anti-desmoglein-3 scFv antibody binding to human DSG3?
Found: 85.1

Lookup: Any idea what binding (% of control) came out for CC12CCC(C(=O)NCc3ccccn3)(OC1=O)C2(C)C (stereo not given) on anti-desmoglein-3 scFv antibody binding to human DSG3?
Found: 104

###

- test: reduced mouse 2C T cell binding to pMHC/ICAM-1 vesicles – MLPCN validation set, flow cytometry, LFA-1/ICAM-1 modulator project, pilot screen (AID 2523);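 further: mean PE anti-B7-1 fluorescence of CD8+ cells relative to row control; 100% = QL9-loaded vesicles with DMSO vehicle in the same plate row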
- run_parameters: 2C mouse CD8+ T cells, at 7 µM, active compounds read low
measured_endpoint: vesicle binding response (%)
Note: unit % is implicit; provide only the numeric part.

* O=C(N/N=C\c1cc([N+](=O)[O-])ccc1N1CCOCC1)c1ccccn1 | 142
* Cc1ccc(S(=O)(=O)N2CCC(C(=O)N[C@@H](C)C(=O)NC3CCS(=O)(=O)C3)CC2)cc1 (stereo partly drawn) | 144

Lookup: Tell me the measured vesicle binding response of CC(N=C(NC#N)Nc1ccncc1)C(C)(C)C (stereo not drawn) , please.
Found: 97.4

Lookup: Tell me the measured vesicle binding response of CC1(C#CC[N+]2(C)CCCCC2)CCC2C(O1)c1ccccc1OC2(C)C (stereo not drawn) , please.
Found: 95.6

Lookup: Tell me the measured vesicle binding response of CC1Cc2ccccc2N1NC(=O)c1ccc(Cl)c(S(N)(=O)=O)c1 (stereo not drawn) , please.
Found: 19.9

Lookup: Tell me the measured vesicle binding response of Cc1nc(C2CC(=O)OC23CCCCC3)cs1 (stereo not drawn) , please.
Found: 136

Lookup: Tell me the measured vesicle binding response of CCCCCCCCCC(=O)OCC(O)CO (stereo not drawn) , please.
Found: 163

Lookup: Tell me the measured vesicle binding response of `CCn1c(SCC(=O)c2ccccc2)nc2ccccc2c1=O` , please.
Found: 176

Lookup: Tell me the measured vesicle binding response of `c1ccc2[nH]c(-c3cscn3)nc2c1` , please.
Found: 174

Lookup: Tell me the measured vesicle binding response of COc1ccc(C2NCCC3(O)CCCCC23)c(OC)c1OC (stereo not drawn) , please.
Found: 199

###

- study_target: Guanine nucleotide-binding protein G(o) subunit alpha (Homo sapiens) (UniProt P09471)
- Sequence (P09471 whole entry, looked up): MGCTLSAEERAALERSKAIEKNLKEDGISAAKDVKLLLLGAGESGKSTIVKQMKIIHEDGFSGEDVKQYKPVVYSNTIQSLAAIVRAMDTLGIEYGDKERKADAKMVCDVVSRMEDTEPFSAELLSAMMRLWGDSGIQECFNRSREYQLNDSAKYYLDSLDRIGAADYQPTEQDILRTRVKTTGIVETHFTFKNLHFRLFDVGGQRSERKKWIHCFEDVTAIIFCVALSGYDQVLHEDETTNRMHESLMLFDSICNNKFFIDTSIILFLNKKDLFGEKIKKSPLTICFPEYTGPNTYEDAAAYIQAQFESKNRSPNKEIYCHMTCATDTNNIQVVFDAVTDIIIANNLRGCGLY
- test: RGS4 and Galphao interaction regulators – biochemical, single concentration, multiplexed bead flow cytometry, confirmation (AID 1840)
- run_parameters: at 10 µM, actives lie on both sides
The list shows a part of the results.
measured_endpoint: binding response (% of control) (%)
Note: unit % is implicit; provide only the numeric part.

- CCC(=O)Nc1c(S(=O)(=O)c2ccccc2)c2nc3ccccc3nc2n1Cc1ccccc1: 103
- CCn1c(CSCc2c(Cl)cccc2Cl)n[nH]c1=S: 94.2
- O=C(OCC1O[C@@H](OC(=O)c2cc(O)c(O)c(O)c2)[C@@H](OC(=O)c2cc(O)c(O)c(O)c2)[C@@H](OC(=O)c2cc(O)c(O)c(O)c2)[C@@H]1OC(=O)c1cc(O)c(O)c(O)c1)c1cc(O)c(O)c(O)c1 (stereo not given in full): -1.02
- COc1ccc(C(=O)COC(=O)c2ccc3ccccc3n2)cc1: 92.6
- CC(C)(C)NC(=O)c1cccc(NC(=O)Cc2ccc(Br)cc2)c1: 100

Lookup: Any idea what binding response (% of control) came out for `NC(=O)CSc1c[nH]c2ccccc12` on Guanine nucleotide-binding protein G(o) subunit alpha (Homo sapiens) (UniProt P09471)?
Found: 106

Lookup: Any idea what binding response (% of control) came out for CCCC1C(c2ccccc2)C(C#N)(C#N)C2(C#N)CC1(N)NC2=O (stereo not given) on Guanine nucleotide-binding protein G(o) subunit alpha (Homo sapiens) (UniProt P09471)?
Found: 103

Lookup: Any idea what binding response (% of control) came out for `Cc1cccc(S(=O)(=O)CC(=O)Nc2nc(-c3ccccc3)cs2)c1` on Guanine nucleotide-binding protein G(o) subunit alpha (Homo sapiens) (UniProt P09471)?
Found: 103

Value source: PubChem BioAssay
